Test system: P. falciparum stage V gametocytes
Set-up: BacTiter-Glo ATP luminescence viability of purified stage V gametocytes in 384-well plates, per cent inhibition versus DMSO
Details: 48 h, 5 µM; inhibitor
Screen size: about 13,000 compounds; about 3,200 (25%) showed an effect of 50% or more. This is one part of the list.
Assignment: determine reported % Inhibition for the given molecules.
A number alone suffices; assume %.

Quick note, % Inhibition for CN(C)CCOc1cc(NC(=O)Nc2ccc(-c3ccncc3)c3ccccc23)ccc1I landed at 23.38

Quick note, % Inhibition for Cc1cc2ncn(-c3nccc(NCc4ccc(F)cc4)n3)c2cc1C landed at 11.81

Quick note, % Inhibition for CC(C)N1CCC(N(Cc2ccc(-c3ccc(C(F)(F)F)cc3)cc2)C(=O)Cn2c(CCc3cccc(F)c3F)cc(=O)c3cn(C)nc32)CC1 landed at 117.7

Quick note, % Inhibition for Cc1ccc2c(C3=CCN(CCCCC4(C)C(=O)Nc5c(F)cccc54)CC3)c(C)[nH]c2c1 (centres unmarked) landed at 12.05

Quick note, % Inhibition for O=C1CN(C(=O)CCC2CCCC2)C(c2ccc(F)cc2)c2cc(F)ccc2N1 (centres unmarked) landed at -48.27

Quick note, % Inhibition for Cc1cc(N[C@@H](Cc2ccccc2)C(=O)NCc2cccs2)nc(Nc2ccccc2)n1 landed at -21.51

Quick note, % Inhibition for COc1ccc(-c2cccc(NC(=O)c3cccc(Cl)c3)c2)cc1CN1CCN(C)CC1 landed at 28.66

Quick note, % Inhibition for Cc1nc(Nc2cc(Cl)ccc2O)nc(Nc2cc(Cl)ccc2O)c1[N+](=O)[O-] landed at -25.8

Quick note, % Inhibition for CCC1N=C(N)N=C(N)N1OCc1ccc(Cl)c(Cl)c1 (centres unmarked) landed at 19.76

Quick note, % Inhibition for COc1cc(CS(C)(=O)=O)ccc1Nc1nccc(-c2c(-c3cccc(NC(=O)c4c(F)cccc4F)c3)nn3ccccc23)n1 landed at -6.854

Quick note, % Inhibition for COc1ccc(-c2ccc(NC(=O)c3ccc(Cl)cc3)cc2)cc1CN1CCCN(C)CC1 landed at 104.3

Quick note, % Inhibition for c1ccc(-c2[nH]ncc2Nc2ccnc3ccccc23)nc1 landed at -8.718

Quick note, % Inhibition for Cn1nccc1C(=O)NCCNCc1cccc(-c2cccc(-c3nc4cc(C(F)(F)F)ccc4[nH]3)c2)c1.O=C(O)C(F)(F)F landed at 12.04

Quick note, % Inhibition for Cc1ccccc1OCC(=O)Nc1ccc(-c2nc3cc4ccccc4cc3[nH]2)cc1 landed at 10.69

Quick note, % Inhibition for Cc1cc(C(F)(F)F)n2nc(C(=O)N(C)Cc3cncn3Cc3ccc(F)cc3)cc2n1 landed at 29.43

Quick note, % Inhibition for CSCCCN1CCC(O)(c2ccc3oc(C(=O)Nc4ccc5sc(C)nc5c4)cc3c2)CC1 landed at 11.7

Quick note, % Inhibition for COc1ccc(COc2c(OC)cc(Cc3cnc(N)nc3N)cc2OC)cc1 landed at 7.542

Quick note, % Inhibition for CC1CC(NCCCNc2cc(=O)c3ccccc3[nH]2)c2c1cc(Cl)c(Cl)c2Cl (centres unmarked) landed at -50.98

Quick note, % Inhibition for CC(c1cccc(Nc2nccc(-c3c(-c4cccc(NC(=O)c5c(F)cccc5F)c4)nn4ncccc34)n2)c1)S(C)(=O)=O (centres unmarked) landed at -68.26

Quick note, % Inhibition for COc1cccc(NC(=O)Nc2cc(-c3ccc4[nH]ncc4c3)cc3c2CNC3=O)c1 landed at 14.15

Quick note, % Inhibition for Cc1cc(N[C@@H](Cc2ccccc2)C(=O)NCCc2ccccc2)nc(NCCc2cccs2)n1 landed at 14.35

Quick note, % Inhibition for CCN(CC)C(=O)c1cnc(-c2ccccc2)nc1Oc1cccc(Cl)c1 landed at 14.15

Quick note, % Inhibition for COc1ccc(CNc2ccnc(-n3cnc4cc(C)c(C)cc43)n2)cc1Cl landed at 49.39

Quick note, % Inhibition for Cc1cccc2nc(-c3cccc(-c4ccc(NC(=O)NC5CC5c5ccccc5)cc4)c3)[nH]c12 (centres unmarked) landed at -20.42

Quick note, % Inhibition for CCc1ccc(OCCCON2C(N)=NC(N)=NC2(C)C)cc1 landed at 2.956

Quick note, % Inhibition for Cc1cc2ncn(-c3nccc(NCc4cccnc4)n3)c2cc1C landed at 55.3

Quick note, % Inhibition for Cc1cc(N[C@@H](Cc2ccccc2)C(=O)NCc2cccs2)nc(NCCc2ccccc2)n1 landed at 70.11

Quick note, % Inhibition for COc1ccc2nccc([C@@H](O)CN3CCC(NC(=O)C(c4cc5ccccc5s4)N4CCN(c5ccccc5OC)CC4)CC3)c2c1 (some centres unmarked) landed at -1.294

Quick note, % Inhibition for COc1ccc(-c2ccc(NC(=O)c3ccc(C#N)cc3)cc2)cc1CN1CCN(C)CC1 landed at -18.08

Quick note, % Inhibition for COc1cc(NC(=O)N2CCOC(CCN3CCC(c4ccccc4)CC3)(c3ccc(Cl)c(Cl)c3)C2)cc(OC)c1 (centres unmarked) landed at -16.83

Quick note, % Inhibition for O=C(NCc1ccccc1)NC1CCN(c2ccnc3cc(Cl)ccc23)C1 (centres unmarked) landed at -15.46

Quick note, % Inhibition for O=C(c1ccc(O)c(-c2cc(Cl)cc(Cl)c2)c1)N1CCCC1 landed at -10.57
